Test: Plasma pharmacokinetics of DHC after oral administration of pure DHC or EFY
Assay type: in vivo, Sprague-Dawley rats
Conditions: Sprague-Dawley, DHC in rat plasma, equivalent dose of 97.5 mg/kg DHC (EFY 483 mg/kg), n = 5, mean ± SD
From the text: DHC is the most abundant quaternary protoberberine-type alkaloid in EFY and has clear cardiovascular pharmacological activity. […] An Agilent 1100 system (Palo Alto, CA, USA) equipped with a vacuum degasser, a quaternary pump, and an auto-sampler were used. […] [26, 27, 28] were monitored for DHC and IS, respectively. […]
Quantity Name: AUC(0-inf) (ng·h/mL)
Hi! Could you send only the number? It should be in ng·h/mL, unit omitted.

IN: What value of AUC(0-inf) has been recorded for this entry: COc1cc2c(cc1OC)-c1c(C)c3ccc(OC)c(OC)c3c[n+]1CC2 [DHC, dehydrocorydaline]
OUT: 59.1
